The origin of these recorded values is patent US20150030595A1.

# SUBJECT OF TEST: T1, anti-myc antibody coated on the ELISA plate
# T1 construct: also called a-MYC; a-myc
# PROTOCOL DETAILS: phage ELISA, anti-myc coated
Reported OD490 values are given for each entry in this list.
ENDPOINT: OD490

[
  {
    "BINDER": "ACVR2B D07 (monoclonal scFv-phage) (scFv, V domains shown, also called D7) VH: QVQLVQSGAEVKKPGASVKVSCKASGYTFTSYYMHWVRQAPGQGLEWMGIINPSGGSTSYAQKFQGRVTMTRDTSTSTVYMELSSLRSEDTAVYYCAKDQSRGWYSNFDSWGQGTLVTVSS VL: DIQMTQSPSTLSASVGDRVTITCRASQTVSNWLAWYQLKPGKAPKLLIYKASSLESGVPSRFSGTGSETEFTLTISSLQPDDFATYYCQQYHSYPITFGQGTRLEIK",
    "RESULT": "0.24 OD"
  },
  {
    "BINDER": "ACVR2B C07 (monoclonal scFv-phage) (scFv, V domains shown, also called C7) VH: QMQLVQSGGGLVKPGGSLRLSCAPSGFTFRDYHMSWIRQAPGKGLEWISNISNSGTNIYYADSVKGRFTISRDNAKNSLYLQMNSLRAEDTAVYYCARGHYGMDIWGQGTTITVSS VL: DIQMTQSPSSLSASVGDRVTITCRASQGIANYLAWYQQKPGKAPKLLIYAASTLQSGVPSRFSGSGSGTDFTLTISSLQPEDFATYYCQQVKSYPLSFGGGTKVEIK",
    "RESULT": "0.44 OD"
  },
  {
    "BINDER": "ACVR2B B11 (monoclonal scFv-phage) (scFv, V domains shown) VH: VQLVESGGGLVQPGRSLRLSCAASGFTFDNHAMHWVRRAPGKGLEWVSGISWNGGTTAYADSVKGRFSIFRDNAEKSLYLQMNSLRAEDTAVYYCARGSSSGRYYFDYWGQGTLVTVSS VL: DIQMTQSPSSVSASVGDRVTITCRASQGISTYLNWYQHQSGKAPKLLIYGAFRLQSGVPSRFSGSGSGTDFTLTISNLQPEDFATYYCQQAKNFPLTFGGGTKVDIK",
    "RESULT": "0.657 OD"
  }
]
